Source: paper PMC12133982

- Target Of Assay: HLA-C0304 (Homo sapiens, UniProt P10321, A176E/A330V/A97T/C25G/C350S/D114A/D33Y/E197K/L119I/L127V/L171W/L218V/M285V/M309V/M331V/P208H/Q277E/Q291P/R243W/R45H/S123Y/S140Y/S297R/S48A/T118I/T187L/T329A/T363A/V319A)
- Assay Method Text: Competitive peptide binding assay, CIR-C0304
- Run Conditions: HMy2.CIR-C0304 cells, reference Cy5-[…], class from inhibition at 5 and 15 μM, flow cytometry MFI; read-out: Binding affinity with HLA-C0304
pIC50: −log10 of the molar value. Peptide text beside a SMILES is read from it.
Measured Attribute: pIC50

{"columns": ["Compound", "Measured Attribute", "Experimental Result"],
 "data": [
  ["CC(C)C[C@H](NC(=O)[C@H](C)NC(=O)[C@H](C)NC(=O)CNC(=O)[C@H](C)NC(=O)CNC(=O)[C@H](Cc1ccccc1)NC(=O)[C@@H](NC(=O)[C@@H](N)Cc1c[nH]c2ccccc12)[C@@H](C)O)C(=O)O [Epitope M33, WTFGAGAAL] (H-WTFGAGAAL-OH; N-terminus and C-terminus assumed)", "pIC50", "< 4.82"],
  ["CC(C)C[C@H](NC(=O)[C@@H](NC(=O)[C@@H](NC(=O)CNC(=O)[C@H](CCC(N)=O)NC(=O)[C@@H]1CCCN1C(=O)[C@H](CC(C)C)NC(=O)[C@H](CCC(N)=O)NC(=O)[C@H](CC(C)C)NC(=O)[C@@H](N)C(C)C)[C@@H](C)O)[C@@H](C)O)C(=O)O [Epitope M18] (H-VLQLPQGTTL-OH; N-terminus and C-terminus assumed)", "pIC50", "< 4.82"],
  ["CSCC[C@H](NC(=O)[C@H](CO)NC(=O)[C@H](Cc1ccccc1)NC(=O)[C@H](Cc1c[nH]cn1)NC(=O)[C@H](CCCCN)NC(=O)[C@H](CCCNC(=N)N)NC(=O)[C@H](CC(C)C)NC(=O)[C@H](Cc1ccc(O)cc1)NC(=O)[C@H](C)NC(=O)[C@@H](N)Cc1ccc(O)cc1)C(=O)O [Epitope M26] (H-YAYLRKHFSM-OH; N-terminus and C-terminus assumed)", "pIC50", "4.82 to 5.30"],
  ["CC(C)C[C@H](NC(=O)[C@H](CCC(=O)O)NC(=O)[C@H](Cc1ccccc1)NC(=O)[C@H](CO)NC(=O)[C@H](CC(C)C)NC(=O)[C@@H](NC(=O)[C@@H](NC(=O)[C@@H](NC(=O)[C@H](CCCNC(=N)N)NC(=O)[C@@H](N)Cc1ccc(O)cc1)C(C)C)C(C)C)C(C)C)C(=O)O [Epitope M156] (H-YRVVVLSFEL-OH; N-terminus and C-terminus assumed)", "pIC50", "< 4.82"]
]}

* * *

- Target Of Assay: HLA-B1501 (Homo sapiens, UniProt P01889, A329T/A93T/A95T/C349S/D201E/D98Y/E187L/E204Q/E69M/E70A/K202T/N87E/Q94N/R155S/R180W/S121R/S35A/S48A/V306I/V36M/Y140S/Y91S)
- Assay Method Text: Competitive peptide binding assay, CIR-B1501
- Run Conditions: HMy2.CIR-B1501 cells, reference Cy5-[…], class from inhibition at 5 and 15 μM, flow cytometry MFI; read-out: Binding affinity with HLA-B1501
Peptide text beside a SMILES is read from it.

{"columns": ["Compound", "IC50"],
 "data": [
  ["CSCC[C@H](NC(=O)[C@H](C)NC(=O)[C@@H](N)Cc1ccccc1)C(=O)N[C@@H](CCC(N)=O)C(=O)N[C@@H](CCSC)C(=O)N[C@@H](C)C(=O)N[C@@H](Cc1ccc(O)cc1)C(=O)N[C@@H](CCCNC(=N)N)C(=O)N[C@@H](Cc1ccccc1)C(=O)O [Epitope Y189]", "> 15 µM"],
  ["C[C@@H](O)[C@H](NC(=O)CNC(=O)[C@H](CCC(N)=O)NC(=O)[C@@H](N)CCCNC(=N)N)C(=O)N[C@@H](CC(=O)O)C(=O)N[C@@H](Cc1ccc(O)cc1)C(=O)N[C@@H](CCCCN)C(=O)N[C@@H](Cc1c[nH]cn1)C(=O)N[C@@H](Cc1c[nH]c2ccccc12)C(=O)O [Epitope Y222] (H-RQGTDYKHW-OH; N-terminus and C-terminus assumed)", "5 to 15 µM"],
  ["CC(C)[C@H](NC(=O)CNC(=O)[C@H](Cc1c[nH]cn1)NC(=O)[C@@H]1CCCN1C(=O)[C@H](C)NC(=O)[C@H](CO)NC(=O)[C@@H](N)CCC(N)=O)C(=O)N[C@H](C(=O)N[C@@H](Cc1ccccc1)C(=O)O)C(C)C [Epitope Y146] (H-QSAPHGVVF-OH; N-terminus and C-terminus assumed)", "< 5 µM"]
]}

* * *

- Target Of Assay: HLA-C1402 (Homo sapiens, UniProt P10321, A176E/A330V/A35S/A97T/C350S/D114A/D33S/L171W/L180R/L218V/M285V/M309V/M331V/P208H/Q277E/Q291P/R121W/R243W/S123F/S297R/S48A/T329A/T363A/V319A)
- Assay Method Text: Competitive peptide binding assay, CIR-C1402
- Run Conditions: HMy2.CIR-C1402 cells, reference Cy5-[…], class from inhibition at 5 and 15 μM, flow cytometry MFI; read-out: Binding affinity with HLA-C1402
Peptide text beside a SMILES is read from it.

{"columns": ["Molecule", "IC50"],
 "data": [
  ["CC[C@H](C)[C@H](NC(=O)[C@H](C)NC(=O)[C@H](C)NC(=O)[C@H](CC(N)=O)NC(=O)[C@H](CC(N)=O)NC(=O)[C@H](C)NC(=O)[C@@H]1CCCN1C(=O)[C@H](CC(N)=O)NC(=O)[C@H](CCCNC(=N)N)NC(=O)[C@@H](N)[C@@H](C)O)C(=O)O [Epitope M117] (H-TRNPANNAAI-OH; N-terminus and C-terminus assumed)", "> 15 µM"],
  ["CC[C@H](C)[C@H](N)C(=O)N[C@H](C(=O)N[C@@H](CC(N)=O)C(=O)N[C@@H](CO)C(=O)N[C@H](C(=O)N[C@@H](CC(C)C)C(=O)N[C@@H](CC(C)C)C(=O)N[C@@H](Cc1ccccc1)C(=O)N[C@@H](CC(C)C)C(=O)O)C(C)C)C(C)C [Epitope M7] (H-IVNSVLLFL-OH; N-terminus and C-terminus assumed)", "> 15 µM"],
  ["CC(C)C[C@H](NC(=O)[C@H](CCC(=O)O)NC(=O)[C@H](Cc1ccccc1)NC(=O)[C@H](CO)NC(=O)[C@H](CC(C)C)NC(=O)[C@@H](NC(=O)[C@@H](NC(=O)[C@@H](NC(=O)[C@H](CCCNC(=N)N)NC(=O)[C@@H](N)Cc1ccc(O)cc1)C(C)C)C(C)C)C(C)C)C(=O)O [Epitope M156] (H-YRVVVLSFEL-OH; N-terminus and C-terminus assumed)", "> 15 µM"]
]}

* * *

- Target Of Assay: HLA-C0401 (Homo sapiens, UniProt P10321, A176E/A330V/A35S/A73E/C25G/C350S/D138N/D33S/E299K/L171W/L180R/L218V/M285V/M309V/M331V/N104K/P208H/Q277E/Q291P/R243W/R38W/S101N/S123F/S140F/S297R/S48A/T329A/T363A/V319A/V327M)
- Assay Method Text: Competitive peptide binding assay, CIR-C0401
- Run Conditions: HMy2.CIR-C0401 cells, reference Cy5-[…], class from inhibition at 5 and 15 μM, flow cytometry MFI; read-out: Binding affinity with HLA-C0401
Peptide text beside a SMILES is read from it.

{"columns": ["Molecule", "IC50"],
 "data": [
  ["CC(C)C[C@H](NC(=O)[C@@H](NC(=O)[C@@H](NC(=O)CNC(=O)[C@H](CCC(N)=O)NC(=O)[C@@H]1CCCN1C(=O)[C@H](CC(C)C)NC(=O)[C@H](CCC(N)=O)NC(=O)[C@@H](N)CC(C)C)[C@@H](C)O)[C@@H](C)O)C(=O)O [Epitope M13] (H-LQLPQGTTL-OH; N-terminus and C-terminus assumed)", "5 to 15 µM"],
  ["CC[C@H](C)[C@H](N)C(=O)N[C@@H](C)C(=O)N[C@@H](CC(N)=O)C(=O)N[C@@H](CCC(N)=O)C(=O)N[C@@H](Cc1ccccc1)C(=O)N[C@@H](CC(N)=O)C(=O)N[C@@H](CO)C(=O)N[C@@H](C)C(=O)N[C@H](C(=O)O)[C@@H](C)CC [Epitope M37] (H-IANQFNSAI-OH; N-terminus and C-terminus assumed)", "> 15 µM"]
]}
